Data credit: ChEMBL document CHEMBL1157539

Tested on: HepG2
Experiment: GSK_TCMDC: Percent inhibition of human HepG2 cell line. Test compounds present at 10uM.
Assay type: functional
The molecules listed here are annotated with their Inhibition.
Write the figure, then the unit, nothing else.

Task item: Which Inhibition is reported with HepG2 for this entry: "O=C(NCCCNc1ccc2ccccc2n1)c1cc2c(Cl)cc(Cl)cc2[nH]1" ?
Reply: 40%

Task item: One more molecule: "O=C(Nc1ccsc1C(=O)NC1CCCCC1)c1ccc(F)cc1"
Reply: 3%

Task item: Likewise for "CC(C)C[C@H](NC(=O)c1cccc(F)c1)C(=O)N[C@H](/C=N/NC(=O)c1ccccc1)CCc1ccccc1" ?
Reply: 0%

Task item: Check "N#Cc1ccc(CN2CCC(Oc3ccc(NC(=O)c4cccs4)cc3)CC2)cc1.O=C(O)C(F)(F)F" too.
Reply: 10%

We next turn to a different molecule, shown below.
Task item: Recorded Inhibition for "Cc1cc(NCCC(=O)Nc2ccccc2)nc(NCCc2cccnc2)n1.O=C(O)C(F)(F)F" with HepG2, please?
Reply: 0%
